# Test system: wild type laboratory HIV strain (HIV-1 strain LAI)
# Measurement Notes: Antiviral cellular assay (MT4 cells, MTT), wild type
# Type: cell-based
# Recorded Conditions: Human immunodeficiency virus 1, MT4; read-out: EC50 value for wild-type HIV
pEC50: −log10 of the molar value.
Measurement Type: pEC50

(Q) Query pEC50 on wild type laboratory HIV strain (HIV-1 strain LAI) for Cn1c2ccccc2c2c1cc(C#N)c(=O)n2-c1ccc([N+](=O)[O-])cc1
(A) > 7.00

====

# System: Plasmodium f.
# Measurement Notes: Specificity versus non-viral pathogens: Plasmodium f.
# Format: cell-based
Measurement Type: EC50

(Q) For the compound Cn1c2ccccc2c2c1cc(C#N)c(=O)n2-c1ccc([N+](=O)[O-])cc1 , what EC50 is on record?
(A) > 32 µM
